- Test Target: full-length human PRMT1 isoform 1 (GST-tagged) (Homo sapiens, UniProt Q99873)
- Sequence (Q99873 with tags, fused parts or gaps): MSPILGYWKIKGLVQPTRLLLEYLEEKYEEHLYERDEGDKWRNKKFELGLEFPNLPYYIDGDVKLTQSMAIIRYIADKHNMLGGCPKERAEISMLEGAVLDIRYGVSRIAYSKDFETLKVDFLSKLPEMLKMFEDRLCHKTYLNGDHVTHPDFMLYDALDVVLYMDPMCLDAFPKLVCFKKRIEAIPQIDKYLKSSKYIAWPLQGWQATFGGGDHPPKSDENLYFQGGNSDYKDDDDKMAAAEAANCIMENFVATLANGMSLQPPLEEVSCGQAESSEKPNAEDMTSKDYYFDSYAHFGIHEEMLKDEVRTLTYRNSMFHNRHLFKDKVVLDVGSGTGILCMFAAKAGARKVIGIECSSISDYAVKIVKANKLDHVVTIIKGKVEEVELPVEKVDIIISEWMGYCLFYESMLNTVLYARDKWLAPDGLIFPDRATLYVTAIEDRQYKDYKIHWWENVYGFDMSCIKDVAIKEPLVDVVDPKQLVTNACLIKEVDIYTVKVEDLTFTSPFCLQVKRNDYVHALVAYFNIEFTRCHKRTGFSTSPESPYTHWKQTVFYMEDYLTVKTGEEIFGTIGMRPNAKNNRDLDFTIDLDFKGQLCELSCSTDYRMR
- Measurement Notes: PRMT1 Biochemical Assay (3H-SAM Flashplate, peptide substrate)
- Condition Context: single experiment or average of multiple experiments
Structures can show the parent of a compound that is named as a salt.
Readout Kind: IC50 (nM)

Take a look at these entries with their results.
molecule="CNCCN(C)Cc1c[nH]nc1[C@H]1CC[C@]2(CCN(CC(C)C)C2=O)CC1 [Compound 124]" assay_result=6.4
molecule="CNCCN(C)Cc1c[nH]nc1[C@H]1CC[C@H](O)CC1 [Compound 227, trifluoroacetate]" assay_result=16.8
molecule="CNCCN(C)Cc1c[nH]nc1[C@H]1CC[C@H](N(CC2CCOCC2)C(=O)CC(C)C)CC1 [Compound 192]" assay_result=216
molecule="CNCCN(C)Cc1c[nH]nc1[C@H]1CC[C@@H](N(CCOc2ccccc2)C(=O)CC(C)C)CC1 [Compound 222]" assay_result=43
molecule="CNCCN(C)Cc1c[nH]nc1C1CCC(=O)N(CCc2ccccc2)C1 (centres unmarked) [Compound 110]" assay_result=13.1

1 = CN(CCN)Cc1c[nH]nc1/C=C/c1cc(C(F)(F)F)cc(C(F)(F)F)c1 [Compound 14]
2 = CCOC[C@H]1CC(c2n[nH]cc2CN(C)CCNC)C[C@H](COCC)C1 (some centres unmarked) [Compound 188]
3 = CNCCN(C)Cc1c[nH]nc1[C@H]1CC[C@H](N(CCC(C)C)C(=O)CCOC)CC1 [Compound 236]
4 = CNCCN(C)Cc1c[nH]nc1[C@H]1CC[C@H](N(CCOC)C(=O)CCOc2ccccc2)CC1 [Compound 230]
5 = CNCCN(C)Cc1c[nH]nc1[C@H]1CC[C@@H](N(CCOc2ccccc2)C(=O)CCOC)CC1 [Compound 218]
# rank by IC50, ascending (min first) Answer format: list of labels, ordered as asked.
4, 3, 5, 1, 2

---

- Test Target: full-length human PRMT8 isoform 1 (Homo sapiens)
- Sequence (Q9NR22 whole entry, canonical isoform): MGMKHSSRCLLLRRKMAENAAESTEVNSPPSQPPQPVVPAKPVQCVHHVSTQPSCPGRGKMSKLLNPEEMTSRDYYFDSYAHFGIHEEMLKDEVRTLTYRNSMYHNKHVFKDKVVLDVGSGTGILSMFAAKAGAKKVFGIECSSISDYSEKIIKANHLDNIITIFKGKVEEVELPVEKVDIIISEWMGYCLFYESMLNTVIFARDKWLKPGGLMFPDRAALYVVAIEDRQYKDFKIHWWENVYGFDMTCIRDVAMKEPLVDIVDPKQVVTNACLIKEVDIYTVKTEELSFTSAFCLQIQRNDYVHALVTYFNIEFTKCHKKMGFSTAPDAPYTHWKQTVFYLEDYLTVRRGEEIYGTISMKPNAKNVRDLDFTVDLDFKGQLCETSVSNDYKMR
- Measurement Notes: PRMT8 Biochemical Assay (3H-SAM Flashplate, peptide substrate)
- Condition Context: single experiment or average of multiple experiments; read-out: Biochemical IC50 PRMT8
Readout Kind: IC50 (µM)

compound="CNCCN(C)Cc1c[nH]nc1C1CC(COC)CC(COC)C1 (centres unmarked) [Compound 138]" readout_kind=IC50 assay_result=1.43

a = CNCCN(C)Cc1c[nH]nc1C1CCC(=O)N(CCC(C)C)C1 (centres unmarked) [Compound 117]
b = CNCCN(C)Cc1c[nH]nc1[C@H]1CC[C@H](N(CC(C)C)C(=O)CC2CCOCC2)CC1 [Compound 193]
c = CNCCN(C)Cc1c[nH]nc1C1CCC(C(C)C)CC1 (centres unmarked) [Compound 50]
With regard to IC50, arrange the entries in ascending order, please. Record the ranking as a list of labels in the requested order.
c, b, a

---

- Test Target: full-length human PRMT6 (Flag- and His-tagged) (Homo sapiens, UniProt Q96LA8)
- Sequence (Q96LA8 with tags, fused parts or gaps): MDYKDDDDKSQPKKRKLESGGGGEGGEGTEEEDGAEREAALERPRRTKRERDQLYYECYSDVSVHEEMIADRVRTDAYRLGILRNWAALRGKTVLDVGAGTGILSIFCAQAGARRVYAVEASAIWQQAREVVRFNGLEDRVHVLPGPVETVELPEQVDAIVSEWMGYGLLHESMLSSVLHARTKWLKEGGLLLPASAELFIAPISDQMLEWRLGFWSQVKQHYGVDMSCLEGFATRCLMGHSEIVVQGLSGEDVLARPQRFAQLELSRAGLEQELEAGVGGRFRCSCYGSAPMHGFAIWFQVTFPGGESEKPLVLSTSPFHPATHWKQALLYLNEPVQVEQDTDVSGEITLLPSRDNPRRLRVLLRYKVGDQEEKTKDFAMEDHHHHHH
- Measurement Notes: PRMT6 Biochemical Assay (3H-SAM Flashplate, peptide substrate)
- Condition Context: read-out: Biochemical IC50 PRMT6
In this section we review reported IC50 values for a set of compounds.

Check out these entries, answers already filled in.
compound="CCC(CC)OC1CCC(c2n[nH]cc2CN(C)CCNC)CC1 (centres unmarked) [Compound 70]" readout_kind=IC50 assay_result="< 100 nM"
compound="CNCCN(C)Cc1c[nH]nc1C1CCC(C)(C)C(C(=O)NCCCOC)C1 (centres unmarked) [Compound 93]" readout_kind=IC50 assay_result="< 100 nM"
compound="CNCCN(C)Cc1c[nH]nc1C1CCC(C)(C)CC1 [Compound 52]" readout_kind=IC50 assay_result="< 100 nM"
compound="CNCCN(C)Cc1c[nH]nc1[C@H]1CC[C@@]2(CC1)CC(=O)N(CC(C)C)C2 [Compound 156]" readout_kind=IC50 assay_result="< 100 nM"
compound="CNCCN(C)Cc1c[nH]nc1[C@H]1CC[C@]2(CCCO2)OC1 [Compound 198]" readout_kind=IC50 assay_result="3010 to 10000 nM"

The measured IC50 that CNCCN(C)Cc1c[nH]nc1C1CCC2(CC1)C(=O)NC(=O)N2C (centres unmarked) [Compound 161] showed for full-length human PRMT6 (Flag- and His-tagged) (Homo sapiens, UniProt Q96LA8) is < 100 nM

Recorded IC50 for CNCCN(C)Cc1c[nH]nc1C1CCC2(CC1)NC(=O)N(C)C2=O (centres unmarked) [Compound 170] on full-length human PRMT6 (Flag- and His-tagged) (Homo sapiens, UniProt Q96LA8) was < 100 nM

Simply: CNCCN(C)Cc1c[nH]nc1[C@H]1CC[C@H](N(CC(C)C)C(=O)CCCOC)CC1 [Compound 249] , full-length human PRMT6 (Flag- and His-tagged) (Homo sapiens, UniProt Q96LA8), IC50 = < 100 nM

Simply: CNCCN(C)Cc1c[nH]nc1[C@H]1CC[C@]2(CC1)CC(=O)N(CC(C)C)C2 [Compound 155] , full-length human PRMT6 (Flag- and His-tagged) (Homo sapiens, UniProt Q96LA8), IC50 = < 100 nM

Item CNCCN(C)Cc1c[nH]nc1[C@H]1CC[C@@]2(CCN(Cc3ccc(OCCOC)cc3)C2=O)CC1 [Compound 120] was tested on full-length human PRMT6 (Flag- and His-tagged) (Homo sapiens, UniProt Q96LA8); the reported IC50 is < 100 nM

Record CNCCN(C)Cc1c[nH]nc1C1CCC2(CC1)CC2 [Compound 144] / full-length human PRMT6 (Flag- and His-tagged) (Homo sapiens, UniProt Q96LA8), IC50 recorded as < 100 nM

So the reported IC50 for CNCCN(C)Cc1c[nH]nc1C1CCC(F)(F)CC1 [Compound 216] , on full-length human PRMT6 (Flag- and His-tagged) (Homo sapiens, UniProt Q96LA8), turned out to be < 100 nM

full-length human PRMT6 (Flag- and His-tagged) (Homo sapiens, UniProt Q96LA8) data for CNCCN(C)Cc1c[nH]nc1[C@H]1CC[C@H](N(CC(C)C)C(=O)CCOC)CC1 [Compound 234] ; its IC50: < 100 nM

// compound CNCCN(C)Cc1c[nH]nc1[C@H]1CC[C@H](N(CCC(C)C)C(=O)CCCOC)CC1 [Compound 238] , assay full-length human PRMT6 (Flag- and His-tagged) (Homo sapiens, UniProt Q96LA8), IC50 value: < 100 nM

Query CNCCN(C)Cc1c[nH]nc1[C@H]1CC[C@@H](N(CCOc2ccccc2)C(=O)CCOC)CC1 [Compound 218] on full-length human PRMT6 (Flag- and His-tagged) (Homo sapiens, UniProt Q96LA8); IC50 returned: < 100 nM
